study_target: Hap1 (UniProt P0CE41)
Sequence (P0CE41 whole entry): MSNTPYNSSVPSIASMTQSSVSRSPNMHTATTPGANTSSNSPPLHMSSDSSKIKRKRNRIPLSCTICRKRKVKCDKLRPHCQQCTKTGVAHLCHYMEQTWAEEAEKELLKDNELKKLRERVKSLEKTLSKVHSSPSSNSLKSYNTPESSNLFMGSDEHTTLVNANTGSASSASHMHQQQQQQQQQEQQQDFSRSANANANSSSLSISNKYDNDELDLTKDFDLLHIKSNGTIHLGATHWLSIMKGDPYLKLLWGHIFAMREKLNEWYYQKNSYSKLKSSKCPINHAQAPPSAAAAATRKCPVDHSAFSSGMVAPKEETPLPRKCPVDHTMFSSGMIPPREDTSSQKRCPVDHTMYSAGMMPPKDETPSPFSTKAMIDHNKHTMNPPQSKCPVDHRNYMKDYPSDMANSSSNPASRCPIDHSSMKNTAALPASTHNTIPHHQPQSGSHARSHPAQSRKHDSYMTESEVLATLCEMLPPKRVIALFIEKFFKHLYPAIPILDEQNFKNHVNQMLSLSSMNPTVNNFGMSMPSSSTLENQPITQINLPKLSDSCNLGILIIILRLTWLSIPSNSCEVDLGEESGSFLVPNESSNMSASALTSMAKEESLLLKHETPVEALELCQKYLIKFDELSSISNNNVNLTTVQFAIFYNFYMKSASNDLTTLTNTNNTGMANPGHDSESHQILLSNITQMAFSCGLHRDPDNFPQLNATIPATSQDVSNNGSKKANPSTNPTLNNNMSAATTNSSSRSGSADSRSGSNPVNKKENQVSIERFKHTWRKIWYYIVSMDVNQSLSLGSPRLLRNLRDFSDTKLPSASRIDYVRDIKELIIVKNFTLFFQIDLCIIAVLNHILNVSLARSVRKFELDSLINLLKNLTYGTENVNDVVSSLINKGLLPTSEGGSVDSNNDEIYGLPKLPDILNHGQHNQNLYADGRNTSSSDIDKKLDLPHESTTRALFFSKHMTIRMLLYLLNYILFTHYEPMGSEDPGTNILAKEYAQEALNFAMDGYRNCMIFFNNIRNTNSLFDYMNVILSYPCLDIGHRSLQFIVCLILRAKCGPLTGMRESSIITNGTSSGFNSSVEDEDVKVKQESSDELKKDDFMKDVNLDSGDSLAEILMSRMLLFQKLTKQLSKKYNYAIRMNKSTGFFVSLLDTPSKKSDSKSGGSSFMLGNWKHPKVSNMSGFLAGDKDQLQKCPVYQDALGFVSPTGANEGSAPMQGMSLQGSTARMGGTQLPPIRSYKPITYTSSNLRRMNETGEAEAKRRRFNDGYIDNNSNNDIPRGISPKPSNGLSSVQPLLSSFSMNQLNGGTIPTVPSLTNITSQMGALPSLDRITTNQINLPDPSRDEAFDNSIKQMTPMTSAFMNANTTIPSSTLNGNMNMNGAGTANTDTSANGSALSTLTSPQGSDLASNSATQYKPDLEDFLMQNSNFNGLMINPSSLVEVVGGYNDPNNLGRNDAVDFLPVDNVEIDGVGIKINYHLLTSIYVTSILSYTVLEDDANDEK
experimental_details: PBM E-score (8-mer binding enrichment) (E-score (-0.5 to 0.5)); higher = stronger / more preferred TF binding
recorded_conditions: protein concentration: 200 nM; construct: GST-DNA-binding domain
In all, about 33,000 sequences were measured (“E-score (-0.5 to 0.5)”: median about -0.053, highest 2% from about 0.37 on). Shown is part of a subset that was picked to be rich in the highest values.
We'd kindly ask you to apply these PBM E-score classes: bin 1 (below 0.003), bin 2 (0.003 to below 0.3), bin 3 (0.3 or more)

Band for the recorded PBM E-score of TCCCCGAA ?
bin 3

Entry CGCCCTCA belongs to which category?
bin 1

Record AATGCCGG — which class?
bin 3

###

study_target: Hap1 (UniProt P0CE41)
experimental_details: PBM E-score (8-mer binding enrichment) (E-score (-0.5 to 0.5)); higher = stronger / more preferred TF binding
recorded_conditions: protein concentration: 200 nM; construct: GST-DNA-binding domain
Whole data set: some 33,000 sequences, median “E-score (-0.5 to 0.5)” near -0.053, cut for the highest 2% near 0.37. Shown is part of a subset that was picked to be rich in the highest values.
Readings of PBM E-score for the listed sequences
Respond using a number only.

- sequence_content: "GCCACTAC"
  quantitative_readout: -0.042
- sequence_content: "ACTTCGGG"
  quantitative_readout: 0.247
- sequence_content: "AGCTTTTG"
  quantitative_readout: -0.167
- sequence_content: "AATCTCCG"
  quantitative_readout: 0.476

Observed PBM E-score on Hap1 (UniProt P0CE41) for ACACTAGA , please.
-0.095

PBM E-score of AACACCCT on Hap1 (UniProt P0CE41)?
-0.0622

Under Hap1 (UniProt P0CE41): PBM E-score value of TCCCGGAA ?
0.397

Test system Hap1 (UniProt P0CE41); read-out PBM E-score; what value for ACTTCGGC ?
0.377

Item: TCTTGTCA Test system: Hap1 (UniProt P0CE41) Read-out: PBM E-score Value: ?
-0.139

What is its PBM E-score for Hap1 (UniProt P0CE41)? Entry: CCTTCGGC
0.27

What value of PBM E-score on Hap1 (UniProt P0CE41) does GCACGGAA have?
0.215

###

study_target: Hap1 (UniProt P0CE41)
experimental_details: PBM E-score (8-mer binding enrichment) (E-score (-0.5 to 0.5)); higher = stronger / more preferred TF binding
recorded_conditions: protein concentration: 200 nM; construct: GST-DNA-binding domain
Whole data set: some 33,000 sequences, median “E-score (-0.5 to 0.5)” near -0.053, cut for the highest 2% near 0.37. This is one part of a sample in which the highest values are shown more often than they occur.
I would appreciate it if you labelled entries Satisfied when PBM E-score is -0.06 or higher, otherwise Not satisfied.

Field: example entries. Status: answers known.
- sequence_content: "GACTCCGA"
  study_target: "Hap1 (UniProt P0CE41)"
  group: "Satisfied"
- sequence_content: "CTTGGTAC"
  study_target: "Hap1 (UniProt P0CE41)"
  group: "Not satisfied"
- sequence_content: "CTATCGAG"
  study_target: "Hap1 (UniProt P0CE41)"
  group: "Not satisfied"
- sequence_content: "ACGGCGAA"
  study_target: "Hap1 (UniProt P0CE41)"
  group: "Satisfied"
- sequence_content: "TCCGGCAA"
  study_target: "Hap1 (UniProt P0CE41)"
  group: "Satisfied"

API: the following record is the query input.
# bool: PBM E-score of CCCGGCAG >= -0.06
Satisfied

###

study_target: Hap1 (UniProt P0CE41)
experimental_details: PBM E-score (8-mer binding enrichment) (E-score (-0.5 to 0.5)); higher = stronger / more preferred TF binding
recorded_conditions: protein concentration: 200 nM; construct: GST-DNA-binding domain
Over roughly 33,000 sequences, “E-score (-0.5 to 0.5)” has its median near -0.053; the highest 2% begin near 0.37. What follows is part of a selection rich in the highest values, with near analogues and random picks from the rest.
assay_readout: PBM E-score
Number, no unit, nothing else.

Some entries whose results are on file:
- sequence_content: "ACCATGAG"
  quantitative_readout: -0.129
- sequence_content: "ATACGGAT"
  quantitative_readout: 0.204
- sequence_content: "AAAAGGAA"
  quantitative_readout: 0.0913

For ATCCGACC , what is its reported PBM E-score?
0.307

What value of PBM E-score has been recorded for this entry: AAGCTCGG
0.36

Query: PBM E-score; subject: CTCCAAAC
-0.124

###

study_target: Hap1 (UniProt P0CE41)
experimental_details: PBM E-score (8-mer binding enrichment) (E-score (-0.5 to 0.5)); higher = stronger / more preferred TF binding
recorded_conditions: protein concentration: 200 nM; construct: GST-DNA-binding domain
The full ranking holds about 33,000 sequences; the median of “E-score (-0.5 to 0.5)” is about -0.053, and the highest 2% start at about 0.37. The full list was thinned out, with the highest values kept by preference.
In this section we review reported PBM E-score values for a set of sequences.
Give only the figure.

Consider the following illustrative entries.
- sequence_content: "AGCCGGCG"
  study_target: "Hap1 (UniProt P0CE41)"
  PBM E-score: 0.352
- sequence_content: "CCGAGCCA"
  study_target: "Hap1 (UniProt P0CE41)"
  PBM E-score: 0.347
- sequence_content: "CGGCGCCA"
  study_target: "Hap1 (UniProt P0CE41)"
  PBM E-score: 0.246
- sequence_content: "AAGCGTAC"
  study_target: "Hap1 (UniProt P0CE41)"
  PBM E-score: -0.292
- sequence_content: "GCGAGCGC"
  study_target: "Hap1 (UniProt P0CE41)"
  PBM E-score: 0.137

For the sequence ACCGATAA , what PBM E-score is on record?
0.443

Which PBM E-score value is on record for CGGCGCCG ?
0.406

Can you look up the measured PBM E-score of CCGAGCGA for me?
0.36

Entry GGGATAGA : reported PBM E-score = ?
-0.0284

Fill blank: measured PBM E-score of the sequence GGGCTACA is ____.
-0.0843

###

study_target: Hap1 (UniProt P0CE41)
experimental_details: PBM E-score (8-mer binding enrichment) (E-score (-0.5 to 0.5)); higher = stronger / more preferred TF binding
recorded_conditions: protein concentration: 200 nM; construct: GST-DNA-binding domain
In all, about 33,000 sequences were measured (“E-score (-0.5 to 0.5)”: median about -0.053, highest 2% from about 0.37 on). The sample holds the highest values, similar sequences and a random draw of the others, so the mix is not that of the screen.
assay_readout: PBM E-score
Answer with a bare number; do not write a unit.

// below: answered sequences
- sequence_content: "CCCTAGCC"
  PBM E-score: -0.138
- sequence_content: "GGGCATTA"
  PBM E-score: 0.0704

Can you share its PBM E-score? I mean this sequence: CGGCAATC
0.284

PBM E-score lookup needed for CGGAGGAG , thanks.
0.284

Look up PBM E-score: CGGAGGAA
0.375

Requested read-out: PBM E-score. Entry: ACCAAACT
-0.13

Record request: PBM E-score value, item CCCCGACC
0.238

Would you kindly share the measured PBM E-score for TGCGGAAA ?
0.213

I have this sequence here, TAGACCCA , and I need its recorded PBM E-score.
-0.194

// returns reported PBM E-score for input CCGGGAAA
0.338

###

study_target: Hap1 (UniProt P0CE41)
experimental_details: PBM E-score (8-mer binding enrichment) (E-score (-0.5 to 0.5)); higher = stronger / more preferred TF binding
recorded_conditions: protein concentration: 200 nM; construct: GST-DNA-binding domain
The full ranking holds about 33,000 sequences; the median of “E-score (-0.5 to 0.5)” is about -0.053, and the highest 2% start at about 0.37. What follows is part of a selection rich in the highest values, with near analogues and random picks from the rest.
Hi, to clarify the labels: T covers PBM E-score from 0.3 upward, F covers anything below 0.3.

Before answering, review these 2 worked examples.
- sequence_content: "ATCTCCAG"
  group: "F"
- sequence_content: "ACCGTAAA"
  group: "F"

Dear colleague, could you confirm whether GGGTGATA has PBM E-score at or above 0.3?
F

API: above_or_equal(metric=PBM E-score, cutoff=0.3) for item AAGCAATA
F

###

study_target: Hap1 (UniProt P0CE41)
experimental_details: PBM E-score (8-mer binding enrichment) (E-score (-0.5 to 0.5)); higher = stronger / more preferred TF binding
recorded_conditions: protein concentration: 200 nM; construct: GST-DNA-binding domain
In all, about 33,000 sequences were measured (“E-score (-0.5 to 0.5)”: median about -0.053, highest 2% from about 0.37 on). Shown is part of a subset that was picked to be rich in the highest values.
assay_readout: PBM E-score
# answer = number (no unit)

Give PBM E-score (Hap1 (UniProt P0CE41)) of the following sequence: CGCTCGGA
0.404

Lab request: please report PBM E-score under test system Hap1 (UniProt P0CE41) for GCCTCGGA
0.331

Test system Hap1 (UniProt P0CE41); read-out PBM E-score; what value for GATATGCA ?
0.0359

API: value(readout= PBM E-score, system= Hap1 (UniProt P0CE41), query= CTCCAATC )
-0.121

Observed PBM E-score on Hap1 (UniProt P0CE41) for CGGGTATA , please.
0.435

Entry CCGGTATC , system Hap1 (UniProt P0CE41): what PBM E-score was measured?
0.433

Give recorded PBM E-score with Hap1 (UniProt P0CE41) for the following sequence: CATCGGCG
0.264
